System: Staphylococcus aureus (BAA-1717)
experimental protocol: Checkerboard combination / MIC assay with S. aureus BAA-1717 (MRSA)
Assay type: cell-based
protocol conditions: Ramizol 0.125 μg/mL; S. aureus ATCC BAA-1717
attribute measured: MIC of antibiotic in combination with Ramizol
For clarity, give the value followed by its unit.

chemical structure | experimental target | endpoint result
CN[C@H](CC(C)C)C(=O)N[C@H]1C(=O)N[C@@H](CC(N)=O)C(=O)N[C@H]2C(=O)N[C@H]3C(=O)N[C@H](C(=O)N[C@H](C(=O)O)c4cc(O)cc(O)c4-c4cc3ccc4O)[C@H](O)c3ccc(c(Cl)c3)Oc3cc2cc(c3O[C@@H]2O[C@H](CO)[C@@H](O)[C@H](O)[C@H]2O[C@H]2C[C@](C)(N)[C@H](O)[C@H](C)O2)Oc2ccc(cc2Cl)[C@H]1O | Staphylococcus aureus (BAA-1717) | 1 µg/mL

Lab note: next compound to report on.
Give the reported value of MIC of antibiotic in combination with Ramizol for this record: "CCCCCCCCCC(=O)N[C@@H](Cc1c[nH]c2ccccc12)C(=O)N[C@H](CC(N)=O)C(=O)N[C@@H](CC(=O)O)C(=O)N[C@@H]1C(=O)NCC(=O)N[C@@H](CCCN)C(=O)N[C@@H](CC(=O)O)C(=O)N[C@H](C)C(=O)N[C@@H](CC(=O)O)C(=O)NCC(=O)N[C@H](CO)C(=O)N[C@@H]([C@H](C)CC(=O)O)C(=O)N[C@@H](CC(=O)c2ccccc2N)C(=O)O[C@@H]1C" 0.5 µg/mL

Origin of values: patent US20190328691A1
